- target: Heat shock protein HSP90 (Homo sapiens, UniProt P07900+P08238)
- procedureText: Degradation of Her2 in SKBR3 cells
- Type: functional, cell-based
- conditionParameters: sk-br-3
endpoint: EC50
Please state the value followed by its unit.

# input Give the measured EC50 for CO[C@H]1/C=C\C=C(/C)C(=O)NC2=CC(=O)C(N)=C(C[C@@H](C)C[C@H](OC)[C@H](O)[C@@H](C)/C=C(\C)[C@@H]1OC(N)=O)C2=O
# output 0.008 µM

# input Give the measured EC50 for C=CCNc1c(O)cc2nc3oc2c1C[C@@H](C)C[C@H](OC)[C@H](O)[C@@H](C)/C=C(\C)[C@H](OC(N)=O)[C@@H](OC)/C=C\C=C\3C.Cl
# output 0.585 µM

# input Give the measured EC50 for CO[C@H]1/C=C\C=C(/C)C(=O)NC2=CC(=O)C(NC[C@H](O)CO)=C(C[C@@H](C)C[C@H](OC)[C@H](O)[C@@H](C)/C=C(\C)[C@@H]1OC(N)=O)C2=O
# output 0.141 µM

# input Give the measured EC50 for C=CCNc1c(O)cc2c(O)c1C[C@@H](C)C[C@H](OC)[C@H](O)[C@@H](C)/C=C(\C)[C@H](OC(N)=O)[C@@H](OC)/C=C\C=C(/C)C(=O)N2.Cl [RETASPIMYCIN HYDROCHLORIDE]
# output 0.02 µM

# input Give the measured EC50 for CO[C@H]1/C=C\C=C(/C)C(=O)Nc2cc(O)c(NC[C@H](O)CO)c(c2O)C[C@@H](C)C[C@H](OC)[C@H](O)[C@@H](C)/C=C(\C)[C@@H]1OC(N)=O.Cl
# output 0.321 µM

# input Give the measured EC50 for C=CCn1c(=O)oc2cc3c(O)c(c21)C[C@@H](C)C[C@H](OC)[C@H](O)[C@@H](C)/C=C(\C)[C@H](OC(N)=O)[C@@H](OC)/C=C\C=C(/C)C(=O)N3
# output 1.046 µM

# input Give the measured EC50 for C=CCN1C(=O)COc2cc3c(O)c(c21)C[C@@H](C)C[C@H](OC)[C@H](O)[C@@H](C)/C=C(\C)[C@H](OC(N)=O)[C@@H](OC)/C=C\C=C(/C)C(=O)N3
# output 0.19 µM

---

- target: Heat shock protein HSP90 (Homo sapiens, UniProt P07900+P08238)
- procedureText: Degradation of Her2 in SKOV3 cells
- Type: functional, cell-based
- conditionParameters: sk-ov-3
For each of the molecules below, state its EC50.
Note: unit nM is implicit; provide only the numeric part.

# input Give the measured EC50 for C=CCNc1c(O)cc2nc3oc2c1C[C@@H](C)C[C@H](OC)[C@H](O)[C@@H](C)/C=C(\C)[C@H](OC(N)=O)[C@@H](OC)/C=C\C=C\3C.Cl
# output 435

# input Give the measured EC50 for CO[C@H]1/C=C\C=C(/C)C(=O)Nc2cc(O)c(NC[C@H](O)CO)c(c2O)C[C@@H](C)C[C@H](OC)[C@H](O)[C@@H](C)/C=C(\C)[C@@H]1OC(N)=O.Cl
# output 756

# input Give the measured EC50 for CO[C@H]1/C=C\C=C(/C)C(=O)Nc2cc(O)c(N)c(c2O)C[C@@H](C)C[C@H](OC)[C@H](O)[C@@H](C)/C=C(\C)[C@@H]1OC(N)=O.Cl
# output 31

# input Give the measured EC50 for C=CCn1c(=O)oc2cc3c(O)c(c21)C[C@@H](C)C[C@H](OC)[C@H](O)[C@@H](C)/C=C(\C)[C@H](OC(N)=O)[C@@H](OC)/C=C\C=C(/C)C(=O)N3
# output 742

# input Give the measured EC50 for C=CCNc1c(O)cc2c(O)c1C[C@@H](C)C[C@H](OC)[C@H](O)[C@@H](C)/C=C(\C)[C@H](OC(N)=O)[C@@H](OC)/C=C\C=C(/C)C(=O)N2.Cl [RETASPIMYCIN HYDROCHLORIDE]
# output 27

Values were extracted from ChEMBL document CHEMBL1137417.
